# Measured Target: T1, 4H3753-AA
# T1 chain: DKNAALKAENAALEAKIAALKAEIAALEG
# Experiment: two-hybrid library CCmax;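 note: natural log of median RNA to DNA barcode read ratio; higher means stronger binding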
# Recorded Conditions: mean of both orientations
Below, each entry is listed with its recorded interaction score.
API doc: respond with a numeric literal and nothing else, no unit.

Q. For the binder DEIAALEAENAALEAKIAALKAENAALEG [4H171-AA] , give its measured interaction score value.
A. -1.25

Q. For the binder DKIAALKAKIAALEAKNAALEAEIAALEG [4H2865-AA] , give its measured interaction score value.
A. -0.663

Q. For the binder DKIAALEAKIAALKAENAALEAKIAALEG [4H2389-AA] , give its measured interaction score value.
A. -1.26

Q. For the binder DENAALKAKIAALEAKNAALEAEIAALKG [4H1842-AA] , give its measured interaction score value.
A. -1.52

Q. For the binder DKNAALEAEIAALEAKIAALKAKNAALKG [4H3120-AA] , give its measured interaction score value.
A. 0.619

Q. For the binder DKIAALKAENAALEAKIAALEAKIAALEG [4H2725-AA] , give its measured interaction score value.
A. -1.26

Q. For the binder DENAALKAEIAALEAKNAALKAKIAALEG [4H1597-AA] , give its measured interaction score value.
A. -0.89
